- Test system: 16HBE cells (human epithelial cells of bronchial origin)
- PROTOCOL_DESCRIPTION: Cell viability test (MTT reduction)
- MEASUREMENT_CONTEXT: 16HBE, 1.95 μM, 18 hours, MTT, vs untreated cells
MEASURED_QUANTITY: Average percentage of cell viability (±standard deviation)

• C[C@@]12CCC3[C@@](CCC4[C@@](C)(COC(=O)C(=O)O)CCC[C@]43C)(CC1)C2 (stereo partly drawn) [FDO-H, ent-beyeran-18-O-oxalic acid] = 106.31 ± 17.23%
• C[C@]12C=C[C@@]3(CC[C@@H]4[C@@](C)(COC(=O)C(=O)O)CCC[C@@]4(C)[C@@H]3CC1)C2 [BBN149, ent-beyer-15-en-18-O-oxalic acid] = 94.15 ± 6.34%
• C[C@@]12CCC3[C@@](CCC4[C@@]3(C)CCC[C@@]4(C)C(=O)O)(CC1)C2 (stereo partly drawn) [SR10, ent-beyeran-19-oic acid] = 105.21 ± 6.73%
• C[C@@]12CCC3[C@@](CCC4[C@](C)(COC(=O)C(=O)O)CCC[C@]43C)(CC1)C2 (stereo partly drawn) [SR8, ent-beyeran-19-O-oxalic acid] = 100.17 ± 14.21%
• C[C@]12C=C[C@@]3(CCC4[C@@](C)(COC(=O)CCC(=O)O)CCC[C@@]4(C)C3CC1)C2 (stereo partly drawn) [FDS, ent-beyer-15-en-18-O-succinic acid] = 98.93 ± 5.38%
• C[C@@]12CCC3[C@@](CCC4[C@@]3(C)CCC[C@@]4(C)C(=O)OC3OC(CO)C(O)C(O)C3O)(CC1)C2 (stereo partly shown) [SR4] = 96.35 ± 9.42%
• C[C@]12C=C[C@@]3(CCC4[C@@](C)(COC(=O)CC(=O)O)CCC[C@@]4(C)C3CC1)C2 (stereo partly drawn) [FDM, ent-beyer-15-en-18-O-malonic acid] = 102.92 ± 7.31%

* * *

- Tested on: 16HBE cells (human epithelial cells of bronchial origin)
- PROTOCOL_DESCRIPTION: Cell viability test (MTT reduction);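 also: formazan absorbance at 570 nm after MTT reduction, corrected for cell-free blank wells, reported relative to untreated cells, from duplicate wells over three independent repeats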
- MEASUREMENT_CONTEXT: 16HBE, 250 μM, 18 hours, MTT, vs untreated cells
Note to self: Average percentage of cell viability (±standard deviation) under 70% means True, ties and anything higher get False.

* C[C@]12C=C[C@@]3(CCC4[C@@](C)(COC(=O)CC(=O)O)CCC[C@@]4(C)C3CC1)C2 (stereo partly drawn) [FDM, ent-beyer-15-en-18-O-malonic acid] | False
* C[C@]12C=C[C@@]3(CCC4[C@@](C)(COC(=O)CCC(=O)O)CCC[C@@]4(C)C3CC1)C2 (stereo partly drawn) [FDS, ent-beyer-15-en-18-O-succinic acid] | False
* C[C@@]12CCC3[C@@](CCC4[C@](C)(COC(=O)C(=O)O)CCC[C@]43C)(CC1)C2 (stereo partly drawn) [SR8, ent-beyeran-19-O-oxalic acid] | False
* C[C@@]12CCC3[C@@](CCC4[C@@](C)(COC(=O)C(=O)O)CCC[C@]43C)(CC1)C2 (stereo partly drawn) [FDO-H, ent-beyeran-18-O-oxalic acid] | False
* C[C@@]12CCC3[C@@](CCC4[C@@]3(C)CCC[C@@]4(C)C(=O)OC3OC(CO)C(O)C(O)C3O)(CC1)C2 (stereo partly shown) [SR4] | True
* C[C@@]12CCC3[C@@](CCC4[C@@]3(C)CCC[C@@]4(C)C(=O)O)(CC1)C2 (stereo partly drawn) [SR10, ent-beyeran-19-oic acid] | True
* C[C@]12C=C[C@@]3(CC[C@@H]4[C@@](C)(COC(=O)C(=O)O)CCC[C@@]4(C)[C@@H]3CC1)C2 [BBN149, ent-beyer-15-en-18-O-oxalic acid] | True
